Parameter: MIC. Scope: all listed entries.
- Tested on: E. coli GC 2232
- ASSAY COMMENT: MIC, broth microdilution
- CONDITION: Escherichia coli, GC2232, E. coli GC 2232; Water pre-incubation
Numeric only. Scale: µg/mL

SMILES	SYSTEM UNDER TEST	MEASURED QUANTITY	ASSAY RESULT
CCCN(CC(=O)Nc1cc(N(C)C)c2c(c1O)C(=O)C1=C(O)[C@]3(O)C(=O)C(C(N)=O)=C(O)[C@@H](N(C)C)[C@@H]3C[C@@H]1C2)C(=O)OCOC(=O)C1CCC1	E. coli GC 2232	MIC	4

--- query ---
Please state recorded MIC (tested on E. coli GC 2232) of `CCCN(CC(=O)Nc1cc(N(C)C)c2c(c1O)C(=O)C1=C(O)[C@]3(O)C(=O)C(C(N)=O)=C(O)[C@@H](N(C)C)[C@@H]3C[C@@H]1C2)C(=O)OCOC(=O)C(C)C`
8

* * *

- Tested on: S. pyogenes GC 4563
- ASSAY COMMENT: MIC, broth microdilution
- CONDITION: Streptococcus pyogenes, GC4563, read-out: MINIMAL INHIBITORY CONCENTRATION MIC, Mouse Serum
MEASURED QUANTITY: MIC (µg/mL)
// return numeric value only (unit: µg/mL, not printed)

Before answering, review these 3 worked examples.
SMILES	MEASURED QUANTITY	ASSAY RESULT
CN(C)c1cc(NC(=O)CN(C(=O)OCOC(=O)C2CCCCC2)C(C)(C)C)c(O)c2c1C[C@H]1C[C@H]3[C@H](N(C)C)C(O)=C(C(N)=O)C(=O)[C@@]3(O)C(O)=C1C2=O	MIC	0.12
Cc1cc(C)cc(C(=O)OCOC(=O)N(CC(=O)Nc2cc(N(C)C)c3c(c2O)C(=O)C2=C(O)[C@]4(O)C(=O)C(C(N)=O)=C(O)[C@@H](N(C)C)[C@@H]4C[C@@H]2C3)C(C)(C)C)c1	MIC	0.5
CCCCCCC(=O)OCOC(=O)N(CC(=O)Nc1cc(N(C)C)c2c(c1O)C(=O)C1=C(O)[C@]3(O)C(=O)C(C(N)=O)=C(O)[C@@H](N(C)C)[C@@H]3C[C@@H]1C2)C(C)(C)C	MIC	0.12

Entry `CC(C)CC(=O)OCOC(=O)N(CC(=O)Nc1cc(N(C)C)c2c(c1O)C(=O)C1=C(O)[C@]3(O)C(=O)C(C(N)=O)=C(O)[C@@H](N(C)C)[C@@H]3C[C@@H]1C2)C(C)(C)C` , system S. pyogenes GC 4563: what MIC was measured?
0.12

* * *

Listed below: MIC values for each entry.
- System: E. coli GC 2272
- ASSAY COMMENT: MIC, broth microdilution
- CONDITION: Escherichia coli, GC2272, E. coli GC 2272; Water pre-incubation
Answer format: numeric, µg/mL implied, no suffix.

Consider the following illustrative entries.
COMPOUND	UNIT NAME	MIC
CCCN(CC(=O)Nc1cc(N(C)C)c2c(c1O)C(=O)C1=C(O)[C@]3(O)C(=O)C(C(N)=O)=C(O)[C@@H](N(C)C)[C@@H]3C[C@@H]1C2)C(=O)OCOC(=O)c1ccc(C)cc1 [Example 5]	µg/mL	32
CCCCN(CC(=O)Nc1cc(N(C)C)c2c(c1O)C(=O)C1=C(O)[C@]3(O)C(=O)C(C(N)=O)=C(O)[C@@H](N(C)C)[C@@H]3C[C@@H]1C2)C(=O)OCOC(=O)C(C)(C)C [Example 13]	µg/mL	8

Query the reported MIC for E. coli GC 2272; item: CCCN(CC(=O)Nc1cc(N(C)C)c2c(c1O)C(=O)C1=C(O)[C@]3(O)C(=O)C(C(N)=O)=C(O)[C@@H](N(C)C)[C@@H]3C[C@@H]1C2)C(=O)OCOC(=O)C(C)C [Example 10]
8

* * *

MIC values, listed per item
- System: E. faecium GC 2243
- ASSAY COMMENT: MIC, broth microdilution
- CONDITION: Enterococcus faecium, GC2243, read-out: MINIMAL INHIBITORY CONCENTRATION MIC, pre-incubated in Mouse Serum
Entry rule: numbers only, all in µg/mL.

SMILES	ASSAY RESULT
CCC(C)(C)C(=O)OCOC(=O)N(CC(=O)Nc1cc(N(C)C)c2c(c1O)C(=O)C1=C(O)[C@]3(O)C(=O)C(C(N)=O)=C(O)[C@@H](N(C)C)[C@@H]3C[C@@H]1C2)C(C)(C)C	2
CCCN(CC(=O)Nc1cc(N(C)C)c2c(c1O)C(=O)C1=C(O)[C@]3(O)C(=O)C(C(N)=O)=C(O)[C@@H](N(C)C)[C@@H]3C[C@@H]1C2)C(=O)OCOC(=O)c1ccc(-c2ccccc2)cc1	0.5
CCCCN(CC(=O)Nc1cc(N(C)C)c2c(c1O)C(=O)C1=C(O)[C@]3(O)C(=O)C(C(N)=O)=C(O)[C@@H](N(C)C)[C@@H]3C[C@@H]1C2)C(=O)OCOC(=O)c1cc(C)cc(C)c1	1
CCCCN(CC(=O)Nc1cc(N(C)C)c2c(c1O)C(=O)C1=C(O)[C@]3(O)C(=O)C(C(N)=O)=C(O)[C@@H](N(C)C)[C@@H]3C[C@@H]1C2)C(=O)OCOC(=O)c1cccs1	0.5

Can you look up MIC on E. faecium GC 2243 for `CN(C)c1cc(NC(=O)CN(C(=O)OCOC(=O)c2ccc(C(C)(C)C)cc2)C(C)(C)C)c(O)c2c1C[C@H]1C[C@H]3[C@H](N(C)C)C(O)=C(C(N)=O)C(=O)[C@@]3(O)C(O)=C1C2=O` ?
0.12

API: value(readout=MIC, system=E. faecium GC 2243) for record `CC(C)C(=O)OCOC(=O)N(CC(=O)Nc1cc(N(C)C)c2c(c1O)C(=O)C1=C(O)[C@]3(O)C(=O)C(C(N)=O)=C(O)[C@@H](N(C)C)[C@@H]3C[C@@H]1C2)C(C)(C)C`
0.5

* * *

- Tested on: S. aureus GC 1079
- ASSAY COMMENT: MIC, broth microdilution
- CONDITION: Staphylococcus aureus, GC1079, S. aureus GC 1079; Water pre-incubation
MEASURED QUANTITY: MIC (µg/mL)
Unit µg/mL implied. Number only.

Study these solved cases before continuing.
COMPOUND	MEASURED QUANTITY	UNIT NAME	ASSAY RESULT
CCCCN(CC(=O)Nc1cc(N(C)C)c2c(c1O)C(=O)C1=C(O)[C@]3(O)C(=O)C(C(N)=O)=C(O)[C@@H](N(C)C)C3CC1C2)C(=O)OCOC(=O)C(C)C (stereo partly drawn)	MIC	µg/mL	4
CCCCN(CC(=O)Nc1cc(N(C)C)c2c(c1O)C(=O)C1=C(O)[C@]3(O)C(=O)C(C(N)=O)=C(O)[C@@H](N(C)C)[C@@H]3C[C@@H]1C2)C(=O)OCOC(=O)c1ccc(F)cc1	MIC	µg/mL	4
CCCCN(CC(=O)Nc1cc(N(C)C)c2c(c1O)C(=O)C1=C(O)[C@]3(O)C(=O)C(C(N)=O)=C(O)[C@@H](N(C)C)C3CC1C2)C(=O)OCOC(=O)c1ccc(OC)cc1 (stereo partly drawn)	MIC	µg/mL	8
CCCN(CC(=O)Nc1cc(N(C)C)c2c(c1O)C(=O)C1=C(O)[C@]3(O)C(=O)C(C(N)=O)=C(O)[C@@H](N(C)C)[C@@H]3C[C@@H]1C2)C(=O)OCOC(=O)C(C)C	MIC	µg/mL	1
CCCN(CC(=O)Nc1cc(N(C)C)c2c(c1O)C(=O)C1=C(O)[C@]3(O)C(=O)C(C(N)=O)=C(O)[C@@H](N(C)C)[C@@H]3C[C@@H]1C2)C(=O)OCc1ccccc1	MIC	µg/mL	2

In the following, a different compound is considered.
MIC lookup needed for `CCCN(CC(=O)Nc1cc(N(C)C)c2c(c1O)C(=O)C1=C(O)[C@]3(O)C(=O)C(C(N)=O)=C(O)[C@@H](N(C)C)[C@@H]3C[C@@H]1C2)C(=O)OCOC(=O)c1ccc(OC)cc1` , thanks.
4

* * *

- System: E. coli GC 4560
- ASSAY COMMENT: MIC, broth microdilution
- CONDITION: Escherichia coli, GC4560, E. coli GC 4560; Water pre-incubation
MEASURED QUANTITY: MIC (µg/mL)
Enter your answer as a number in µg/mL; do not include the unit.

Some entries whose results are on file:
COMPOUND	MEASURED QUANTITY	ASSAY RESULT
CCCN(CC(=O)Nc1cc(N(C)C)c2c(c1O)C(=O)C1=C(O)[C@]3(O)C(=O)C(C(N)=O)=C(O)[C@@H](N(C)C)[C@@H]3C[C@@H]1C2)C(=O)OCOC(=O)C(C)(C)C	MIC	1
CCCN(CC(=O)Nc1cc(N(C)C)c2c(c1O)C(=O)C1=C(O)[C@]3(O)C(=O)C(C(N)=O)=C(O)[C@@H](N(C)C)[C@@H]3C[C@@H]1C2)C(=O)OCC	MIC	1
CCCN(CC(=O)Nc1cc(N(C)C)c2c(c1O)C(=O)C1=C(O)[C@]3(O)C(=O)C(C(N)=O)=C(O)[C@@H](N(C)C)[C@@H]3C[C@@H]1C2)C(=O)OCOC(=O)Cc1ccccc1	MIC	0.12
CCCN(CC(=O)Nc1cc(N(C)C)c2c(c1O)C(=O)C1=C(O)[C@]3(O)C(=O)C(C(N)=O)=C(O)[C@@H](N(C)C)[C@@H]3C[C@@H]1C2)C(=O)OCC(C)C	MIC	4
CCCCN(CC(=O)Nc1cc(N(C)C)c2c(c1O)C(=O)C1=C(O)[C@]3(O)C(=O)C(C(N)=O)=C(O)[C@@H](N(C)C)C3CC1C2)C(=O)OCOC(=O)C(C)C (stereo partly drawn)	MIC	2

Name the recorded MIC for CCCCN(CC(=O)Nc1cc(N(C)C)c2c(c1O)C(=O)C1=C(O)[C@]3(O)C(=O)C(C(N)=O)=C(O)[C@@H](N(C)C)C3CC1C2)C(=O)OCOC(=O)c1ccc(OC)cc1 (stereo partly drawn) .
4
